Recorded inhibition by entry
# TARGET: Glucose transporter (Leishmania mexicana)
# ASSAY_PROTOCOL: ST_JUDE_LEISH: Cytotoxicity at 2uM final concentration against transgenic Leishmania Mexicana promastigotes LmGT2 that are glucose transport deficient and complemented with the L. Mexicana glucose transporter 2. Activity is measured by DNA content using SYBR green in vitro
# Format: functional
Entry rule: numbers only, all in %.

INPUT: Query (molecule): CCCc1cc(=O)oc2cc(OC)c(C(=O)CC(C)C)c(OC)c12 ; field requested: inhibition
OUTPUT: 6.92

* * *

# TARGET: Solute carrier family 2, facilitated glucose transporter member 1 (Homo sapiens)
# ASSAY_PROTOCOL: ST_JUDE_LEISH: Cytotoxicity at 2uM final concentration against transgenic Leishmania Mexicana promastigotes LmGLUT1 that are glucose transport deficient and complemented with the human glucose transporter GLUT1. Activity is measured by DNA content using SYBR green in vitro
# Assay type: functional
As shown below, each of these molecules has a reported inhibition value.
Return type: number; implicit unit %.

INPUT: Any idea what its inhibition is? The molecule is O=C(NNC(=O)c1ccc(CCN2CCC(c3nc(COCC(F)(F)F)c(-c4ccc(F)cc4)o3)CC2)cc1)Nc1ccc(Oc2ccccc2)cc1
OUTPUT: -0.99

INPUT: Find the recorded inhibition belonging to CC(=O)CCc1ccc(OCCN(Cc2ccccc2C(F)(F)F)c2ccc(C#N)c(C(F)(F)F)c2)cc1 and report it.
OUTPUT: 3.66

INPUT: Quick one: inhibition of Cc1ccc(Oc2cnn(C)c(=O)c2Nc2cccc(C(=O)NCCc3ccccn3)c2)c(C)c1 ?
OUTPUT: 4.16

INPUT: What measured inhibition goes with CCOc1ccc(Cc2c(C)nc3nc(N)nc(N)c3c2C)cc1 ?
OUTPUT: 29.1

INPUT: What value of inhibition has been reported for the following molecule? Cc1ccc(NC(=O)Nc2ccccc2F)cc1-c1ccc(C(=O)Nc2ccncc2)cc1
OUTPUT: 1.42

INPUT: Reported inhibition, molecule COc1ccc(-c2cccc(NC(=O)c3ccc(Cl)cc3)c2)cc1CN1CCC(O)CC1 : ____
OUTPUT: 5.4

More entries:
INPUT: Which inhibition reading was recorded for the molecule O=C(/C=C/c1ccc(Cl)c(Cl)c1)NCCCCCN1CCC(c2cn[nH]c2-c2ccccc2)CC1 ?
OUTPUT: 4.33

INPUT: Could you tell me which inhibition is on file for CC(C)Cn1cc2c(ccc3nc(N)nc(N)c32)n1 ?
OUTPUT: 1.25

INPUT: Please report the recorded inhibition for N#Cc1ccc2c(c1)CN(C1CCC(NC(=O)/C=C/c3cc(C(F)(F)F)cc(C(F)(F)F)c3)CC1)CCC2 (stereo not drawn) .
OUTPUT: 1.63

INPUT: Recorded inhibition for CN1CCN(c2ccc(Nc3ncc(Cl)c(Nc4cccnc4C(N)=O)n3)cc2)CC1 , please?
OUTPUT: 84.2

INPUT: Given COC(=O)c1cccc(OCCNC2CCN(C[C@H](O)c3ccnc4ccc(OC)cc34)CC2)c1 , state its recorded inhibition.
OUTPUT: 0.73

INPUT: Which inhibition reading was recorded for the molecule Cc1cccc(-c2nc(Nc3ccncc3)c3cc(N(C)C)ccc3n2)n1 ?
OUTPUT: 0.37

INPUT: Please give the measured inhibition for this molecule: CN1CCN(CCCN(Cc2ccc(-c3ccc(CNC4CCCC4)cc3)cc2)C(=O)CCC2CCCC2)CC1
OUTPUT: 76.5

INPUT: Report inhibition for Cc1noc(C)c1-c1cccc(CNCc2ccc(-c3ccc(-c4nc5cc(F)ccc5[nH]4)s3)cc2)c1 please.
OUTPUT: 11.2

INPUT: // lookup inhibition for COc1ccc(NC(=O)/C=C/c2ccccc2Cl)cc1OCCN1CCC(NCc2ccccc2)CC1
OUTPUT: 3.15

INPUT: Entry under review: Cc1cccc2nc(-c3cccc(-c4ccc(NC(=O)c5ccc(=O)[nH]n5)cc4)c3)[nH]c12 . Reported inhibition?
OUTPUT: 3.76
